The following molecules were reported with pIC50 values on Cathepsin S (Homo sapiens) in different studies.
Scale: pIC50 equals -log10([C]), with [C] in mol/L.

These solved cases illustrate the format of a correct answer.
Quick one: pIC50 for N#CC1(NC(=O)[C@@H]2C[C@@H](S(=O)(=O)c3ccc(-c4ccnc(Cl)c4)cc3C(F)(F)F)C[C@H]2C(=O)N2CC(F)(F)C2)CC1 ?
9.70

Quick one: pIC50 for N#CC1(NC(=O)[C@@H]2C[C@@H](S(=O)(=O)c3ccccc3-n3ccnn3)CN2C(=O)C2(c3ncc(Cl)cc3F)CC2)CC1 ?
8.37

Quick one: pIC50 for CCOC(=O)N1CCC(N2CCC2C(=O)N2C[C@H](S(=O)(=O)c3cccc(Cl)c3)C[C@H]2C(=O)NC2(C#N)CC2)CC1 (stereo partly shown) ?
8.74

Quick one: pIC50 for COc1cc(-c2ccc3cc(C(=O)NC4(C(=O)NC5(C#N)CC5)CCC(F)(F)CC4)oc3c2)ccc1S(C)(=O)=O ?
5.64

Quick one: pIC50 for CC(C)(C)OC(=O)N1CCN(C2(C(=O)N3C[C@H](S(=O)(=O)c4ccccc4Cl)C[C@H]3C(=O)NC3(C#N)CC3)CC2)CC1 ?
8.64

Quick one: pIC50 for CC(=O)O[C@@H]1NC(=O)[C@@]1(C)NC(=O)[C@H](Cc1ccccc1)NC(=O)CCc1ccccc1 ?
7.01

Quick one: pIC50 for CO[C@@H]1C[C@H](S(=O)(=O)c2ccc(-c3cnn(CCO)c3)cc2C(F)(F)F)C[C@H]1C(=O)NC1(C#N)CC1 (racemic) ?
9.23

Quick one: pIC50 for CO[C@@H]1C[C@H](S(=O)(=O)c2ccc(N3CCC(F)(F)CC3)cc2C(F)(F)F)C[C@H]1C(=O)NC1(C#N)CC1 (racemic) ?
9.05

// next entry
Quick one: pIC50 for CCOC(=O)N1CCC(N2CCC2C(=O)N2C[C@H](Sc3cccc(C(F)(F)F)c3)C[C@H]2C(=O)NC2(C#N)CC2)CC1 (stereo partly shown) ?
8.10

* * *

The following molecules were reported with IC50 values on Cathepsin S (Homo sapiens) in different studies.
Entries whose IC50 is below 0.9 nM take MET; entries at or above 0.9 nM take NOT MET.

Check if IC50 falls below 0.9 nM for Cc1cc(-c2ccccc2CO)ccc1S(=O)(=O)[C@@H]1C[C@@H](C(=O)NC2(C#N)CC2)N(C(=O)C2(C(F)(F)F)CC2)C1 .
NOT MET

Check if IC50 falls below 0.9 nM for CC[C@H](NC(=O)[C@@H]1C[C@@H](S(=O)(=O)c2ccccc2Cl)CN1C(=O)C1(c2ccc(Cl)cc2)CC1)C(=O)C(=O)NCc1ccccc1 .
NOT MET

Check if IC50 falls below 0.9 nM for CC[C@H](NC(=O)[C@@H]1C[C@@H](S(=O)(=O)c2ccc(C)cc2C)CN1C(=O)OC(C)(C)C)C(=O)C(=O)NC1CC1 .
MET

Check if IC50 falls below 0.9 nM for Cn1cnc2c(-c3cnc(OCCC4CCN5CCCC5C4)c(C(F)(F)F)c3)nc(C#N)nc21 (stereo not drawn) .
NOT MET

Check if IC50 falls below 0.9 nM for Cn1cc(-c2ccc(S(=O)(=O)[C@@H]3C[C@@H](C(=O)NC4(C#N)CC4)N(C(=O)C4(c5ncc(I)cc5F)CC4)C3)c(Cl)c2)cn1 .
MET

Next:
Check if IC50 falls below 0.9 nM for CO[C@@H]1C[C@H](S(=O)(=O)c2ccc(N3CCN(CC(F)(F)F)CC3)cc2C(F)(F)F)C[C@H]1C(=O)NC1(C#N)CC1 (racemic) .
NOT MET

Check if IC50 falls below 0.9 nM for CCC[C@H](NC(=O)[C@@H]1C[C@@H](S(=O)(=O)c2ccccc2C(F)(F)F)CN1C(=O)C1(c2ncc(Cl)cc2F)CC1)C(=O)C(=O)NC1CC1 .
MET

* * *

pIC50: −log10 of the molar value.
The following molecules were reported with pIC50 values on Cathepsin S (Homo sapiens, UniProt P25774) in different studies.
Use 9 as the dividing line for pIC50, with the line itself on the True side and lower values as False.

Answered examples (4):
Is pIC50 at least 9? Consider N#CC1(NC(=O)[C@@H]2C[C@@H](S(=O)(=O)c3ccccc3Cl)C[C@H]2O)CC1 (racemic)
False

Is pIC50 at least 9? Consider CC(C)C[C@H](N[C@@H](c1ccc(-c2ccccc2F)cc1)C(F)(F)F)C(=O)N1C[C@H](F)[C@H]2OCC(=O)[C@H]21
False

Is pIC50 at least 9? Consider CO[C@@H]1C[C@H](S(=O)(=O)c2ccc(-c3cncc(C)c3)cc2C(F)(F)F)C[C@H]1C(=O)NC1(C#N)CC1 (racemic)
True

Is pIC50 at least 9? Consider CCO[C@@H]1C[C@H](S(=O)(=O)c2ccc(-c3c(C)noc3C)cc2C(F)(F)F)C[C@H]1C(=O)NC1(C#N)CC1 (racemic)
True

Next:
Is pIC50 at least 9? Consider N#CC1(NC(=O)C2(NC(=O)c3cc4ccc(-c5csc(N6CCCC6=O)n5)cc4o3)CCCCC2)CC1
False

Is pIC50 at least 9? Consider CCN1CCC(C#N)(NC(=O)[C@@H]2C[C@@H](S(=O)(=O)c3ccc(Cl)cc3Cl)C[C@H]2OCc2ccc(Cl)cc2)CC1 (racemic)
False

Is pIC50 at least 9? Consider CO[C@@H]1C[C@H](S(=O)(=O)c2ccc(O[C@H](C)C(F)(F)F)cc2Cl)C[C@H]1C(=O)NC1(C#N)CC1 (racemic)
False

Is pIC50 at least 9? Consider CO[C@@H]1C[C@H](S(=O)(=O)c2ccc(N3CCN(C4CC4)CC3)cc2C(F)(F)F)C[C@H]1C(=O)NC1(C#N)CC1 (racemic)
False

Is pIC50 at least 9? Consider N#CC1(NC(=O)C2(NC(=O)c3cc4ccc(-c5ccc(-n6cncn6)cc5)cc4o3)CCCCCC2)CC1
False

Is pIC50 at least 9? Consider CO[C@@H]1C[C@H](S(=O)(=O)c2ccc(Br)cc2C(F)(F)F)C[C@H]1C(=O)NC1(C#N)CC1 (single isomer, unassigned)
False

Is pIC50 at least 9? Consider N#CC1(NC(=O)C2(NC(=O)c3cc4ccc(-c5ccc(OC6COC6)cc5)cc4o3)CCC(F)(F)CC2)CC1
False

Is pIC50 at least 9? Consider N#CC1(NC(=O)[C@@H]2C[C@@H](S(=O)(=O)c3cccc(-c4ccnc(Cl)c4)c3)C[C@H]2C(=O)N2CCC(F)(F)C2)CC1
True

* * *

The following molecules were reported with IC50 values on Cathepsin S (Homo sapiens, UniProt P25774) in different studies.

These solved cases illustrate the format of a correct answer.
Quick one: IC50 for CC(C)[C@@H]1NC(=O)/C=C/[C@@H](NC(=O)OC(C)(C)C)COC(=O)[C@H](Cc2ccc(O)cc2)NC1=O ?
< 3 µM

Quick one: IC50 for COc1ccc(S(=O)(=O)[C@@H]2C[C@@H](C(=O)NC3(C#N)CC3)N(C(=O)C3(c4ccc(Cl)cn4)CC3)C2)c(Cl)c1 ?
0.000606 µM

Next:
Quick one: IC50 for Cn1cc(-c2ccc(S(=O)(=O)[C@@H]3C[C@@H](C(=O)NC4(C#N)CC4)N(C(=O)C4(c5ncc(Cl)cc5Cl)CC4)C3)c(Cl)c2)cn1 ?
0.000703 µM

Quick one: IC50 for COC1CN(C(=O)[C@@H]2C[C@H](S(=O)(=O)c3ccccc3)C[C@H]2C(=O)NC2(C#N)CC2)C1 ?
0.0055 µM

Quick one: IC50 for CC(=O)N1CCN(C2(C(=O)N3C[C@H](S(=O)(=O)c4ccccc4Cl)C[C@H]3C(=O)NC3(C#N)CC3)CC2)CC1 ?
0.0022 µM

Quick one: IC50 for COc1ccc(COC[C@@H]2C[C@H](S(=O)(=O)c3ccc(F)cc3Cl)C[C@H]2C(=O)NC2(C#N)CC2)cc1 ?
0.0255 µM

Quick one: IC50 for N#CC1(NC(=O)[C@@H]2C[C@@H](S(=O)(=O)c3ccc(F)cc3Cl)C[C@H]2CF)CC1 ?
0.0615 µM

* * *

The following compounds were reported with IC50 values on Cathepsin S (Homo sapiens, UniProt P25774) in different studies.

These solved cases illustrate the format of a correct answer.
Find the measured IC50: item N#CC1(NC(=O)C2CC(S(=O)(=O)c3ccc(OC4COC4)cc3C(F)(F)F)CC2C(=O)N2CC(F)(F)C2)CC1 (stereo not shown) , target or system Cathepsin S (Homo sapiens, UniProt P25774).
1.1 nM

Find the measured IC50: item Cn1cc(-c2ccc(S(=O)(=O)[C@@H]3C[C@@H](C(=O)NC4(C#N)CC4)N(C(=O)C4(C(F)(F)F)CC4)C3)c(C(F)(F)F)c2)c(C(F)(F)F)n1 , target or system Cathepsin S (Homo sapiens, UniProt P25774).
0.829 nM

Find the measured IC50: item CC(C)[C@@H]1NC(=O)/C=C/[C@@H](NC(=O)[C@H](C)NC(=O)OC(C)(C)C)COC(=O)[C@H](Cc2ccc(O)cc2)NC1=O , target or system Cathepsin S (Homo sapiens, UniProt P25774).
< 3000 nM

// next entry
Find the measured IC50: item CO[C@@H]1C[C@H](S(=O)(=O)c2ccc(-c3cncnc3)cc2C(F)(F)F)C[C@H]1C(=O)NC1(C#N)CC1 (racemic) , target or system Cathepsin S (Homo sapiens, UniProt P25774).
0.6 nM
